Tested on: NCI-H522 lung
measurement_description: NCI-60 one-dose screen, 48 h (100 = growth as untreated, 0 = no growth, -100 = all killed)
condition_details: 10 µM unless noted
The panel holds about 83,000 compounds, 20% with a hit somewhere; the sample as a whole holds those more often.
Threshold rule: growth greater than or equal to 60% is label 1; below that, label 0.

Reference set (5 entries):
compound: CC(=O)OC[C@]12CCC(C)(C)C[C@H]1[C@@]1(O)[C@H](O)C[C@@H]3[C@@]4(C)CCCNC(C)(C)[C@@H]4CC[C@@]3(C)[C@]1(C)CC2
class_label: label 1

compound: O=C(c1ccc(Cl)cc1)N1CCN(c2ccnc3cc(Cl)ccc23)CC1
class_label: label 0

compound: c1cnc2[nH]cc(-c3csc(-c4cn(CCCN5CCOCC5)c5ccccc45)n3)c2c1
class_label: label 0

compound: Fc1cc2c(cc1Cl)N(c1ncnc3ccc(-c4cnc5[nH]ncc5c4)cc13)CC2
class_label: label 0

compound: O=C1N(Cc2ccccc2Cl)c2ccccc2C12NN=C(c1cccc(Cl)c1)S2 (configuration not stated)
class_label: label 0

Qu. Dear colleague, could you confirm whether O=[N+]([O-])C1C(c2ccccc2)C12c1ccccc1-c1ccccc12 (configuration not stated) has growth at or above 60%?
Ans. label 0

Qu. Dear colleague, could you confirm whether "Cn1ccc2c3c(ccc21)CC3=O" has growth at or above 60%?
Ans. label 1

----------
// reported growth for each item listed
Test system: K-562 leukemia
measurement_description: NCI-60 one-dose screen, 48 h (100 = growth as untreated, 0 = no growth, -100 = all killed)
condition_details: 10 µM unless noted
This is part of a sample that, as a whole, favours compounds with a hit. Of some 83,000 tested, about 20% had one in any assay.
Record the value in %, omitting the unit from your answer.

// worked examples, growth included
compound: O=C(O)/C(=C\c1ccc(Cl)cc1)c1ccc(Cl)cc1
growth, %: 43.8
//
compound: O=C(CI)NC1Oc2ccccc2-c2oc(=O)c(-c3ccccc3)cc21 (stereo not given)
growth, %: -13
//
compound: COc1ccc(OC)c(-c2c(C#N)c(-c3cccs3)nc3c2c(-c2ccccc2)nn3-c2ccccc2)c1
growth, %: 106
//
compound: COP(=O)(OC)C(C)(C)CC(=O)CC(C#N)(C#N)C(C#N)C#N
growth, %: 91.1
//
compound: COC(=O)c1c2c(c(C)[n+]([O-])c1C)C(=O)C(NCc1ccc(Cl)cc1)=CC2=O
growth, %: 28.7
//
compound: C=C(C)[C@@H]1CC[C@]2(C(=O)N3CCN(C)CC3)CC[C@]3(C)[C@H](CC[C@@H]4[C@@]5(C)CC(=C/c6ccncc6)/C(=N/O)C(C)(C)[C@@H]5CC[C@]43C)[C@@H]12
growth, %: 34.4

Qu. Give growth (K-562 leukemia) of the following compound: "O=Cc1ccc([N+](=O)[O-])s1"
Ans. 75.4

Qu. Give growth (K-562 leukemia) of the following compound: "Cc1ccc(-c2nc(/C=C3/C(=O)Nc4ccccc43)c3ccccn23)cc1"
Ans. 81.5

Qu. Give growth (K-562 leukemia) of the following compound: CCCCCCCCCCCCCCCC(N)c1ccccc1 (stereo not given)
Ans. 0.445

Qu. Give growth (K-562 leukemia) of the following compound: "COC(=O)CNC(=O)[C@H](Cc1ccccc1)NCc1ccncc1"
Ans. 89.1
